Molecular target: CGRP antigen
Assay: cell-based or functional assay
result type: Relative binding activity (%) vs Ref(Teva)
Write the value in % as a bare number.

# binder C48 (antibody, V domains shown, 1B2-HC + 1A2-LC2; chimeric, human constant regions) VH: EVQLQQSGPEVVKPGASVRISCQASGYTFTDYNMHWVKQSHGKSLEWIGYIFPYNGVAVYNRKFRSKATLIIDKSSTTAYMELRSLTSEDSAVYYCAREGLGGYWGQGTTLTVSS VL: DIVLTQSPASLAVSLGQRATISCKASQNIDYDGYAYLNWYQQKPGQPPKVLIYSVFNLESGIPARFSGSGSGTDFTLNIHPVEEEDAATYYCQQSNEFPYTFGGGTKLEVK ; its Relative binding activity (%) vs Ref(Teva) = 93

Relative binding activity (%) vs Ref(Teva) reading for C125 (antibody, V domains shown, 2B8-HC1 + 2B8-LC2; chimeric, human constant regions) VH: EVQLQQSGPELVKPGASVKISCKASGYTFTDYNMHWVKQSHGKSLEWIGNIYPYNGGTVYNQKFNNKATLTVHTSSSTAYMDLRSLTSDDSAVYYCAREGLGGYWGQGTTLTVSS VL: DVVLTQSPTSLAVSLGQRATISCQASQNIDGNTYMNWYQQKPGQPPKVLIYSIFNLESGIPARFSGSGSGTHFTLTIHPVEEEDAATYYCQQSNDYPYTFGGGTKLEIK : 76.4

Quick note, Relative binding activity (%) vs Ref(Teva) for C69 (antibody, V domains shown, 1B2-HC + 3H10-LC2; chimeric, human constant regions) VH: EVQLQQSGPEVVKPGASVRISCQASGYTFTDYNMHWVKQSHGKSLEWIGYIFPYNGVAVYNRKFRSKATLIIDKSSTTAYMELRSLTSEDSAVYYCAREGLGGYWGQGTTLTVSS VL: DIVLTQSPDSLAVSLGQRATISCKASQNIDYGGYSYMNWYQQKPGQPPKVLIYSVFNLESGIPARFSGSGSGTDFTLTIHPVEEEDAATYYCQQSNEAPYTFGGGTKLEIR landed at 42.2
